// data source = patent US11021532

subject of test: SARS-CoV-2 Receptor Binding Domain (RBD) protein (SARS-CoV-2)
method notes: SPR (Carterra LSA), scFv captured via anti-V5, RBD as analyte, 1:1 fit
endpoint label: pKd
API: returns pKd as number; meaning -log10 of concentration in mol/L.

Enquiry: Please give the measured pKd for this binder: COVID19_P23_G10 (scFv, V domains shown) VH: QVQLVQSGAEVKKPGSSVKVSCKASGYTFTDYYIQWVRQAPGQGLEWMGWINPNSGGPNYAQKFQGRVTITADESTSTAYMELSSLRSEDTAVYYCARVDYGDYGRLEDYWGQGTLVTVSS VL: DIQMTQSPSSLSASVGDRVTITCRASQSIYSWLAWYQQKPGKAPKLLIYDASSLESGVPSRFSGSGSGTDFTLTISSLQPEDFATYYCQQLNSYPYTFGQGTKVEIKR
Return: 9.43

Enquiry: Please give the measured pKd for this binder: COVID19_P11_D08 (scFv, V domains shown) VH: QVQLVQSGAEVKKPGASVKVSCKASGYTFTENEMHWVRQAPGQGLEWMGIINPSGGSTSYAQKFQGRVTMTRDTSTSTVYMELSSLRSEDTAVYYCARDSGVDTATLRYYYYGMDVWGQGTTVTVSS VL: DIQMTQSPSSLSASVGDRVTITCQASQDISKYLNWYQQKPGKAPKLLIYGASTLSDGVPSRFSGSGSGTDFTLTISSLQPEDFATYYCQQGYSTPYSFGQGTKLEIKR
Return: 8.33

Enquiry: Please give the measured pKd for this binder: COVID19_P24_C10 (scFv, V domains shown) VH: QVQLVQSGAEVKKPGASVKVSCKASGYTFTENEMHWVRQAPGQGLEWMGIINPSGGSTSYAQKFQGRVTMTRDTSTSTVYMELSSLRSEDTAVYYCARDSGVDTATLRYYYYGMDVWGQGTTVTVSS VL: DIQMTQSPSSLSASVGDRVTITCQASQDISKYLNWYQQKPGKAPKLLIYGASTLSDGVPSRFSGSGSGTDFTLTISSLQPEDFATYYCQQGYSTPYSFGQGTKLEIKR
Return: 9.06
